system name: BACE1 (Homo sapiens (Human))
measurement protocol: BACE1 cell assay
Type: cell-based
test parameters: read-out: IC50 IP (μM) BACE1 Cell
Sequence (P56817 46-501, species assumed): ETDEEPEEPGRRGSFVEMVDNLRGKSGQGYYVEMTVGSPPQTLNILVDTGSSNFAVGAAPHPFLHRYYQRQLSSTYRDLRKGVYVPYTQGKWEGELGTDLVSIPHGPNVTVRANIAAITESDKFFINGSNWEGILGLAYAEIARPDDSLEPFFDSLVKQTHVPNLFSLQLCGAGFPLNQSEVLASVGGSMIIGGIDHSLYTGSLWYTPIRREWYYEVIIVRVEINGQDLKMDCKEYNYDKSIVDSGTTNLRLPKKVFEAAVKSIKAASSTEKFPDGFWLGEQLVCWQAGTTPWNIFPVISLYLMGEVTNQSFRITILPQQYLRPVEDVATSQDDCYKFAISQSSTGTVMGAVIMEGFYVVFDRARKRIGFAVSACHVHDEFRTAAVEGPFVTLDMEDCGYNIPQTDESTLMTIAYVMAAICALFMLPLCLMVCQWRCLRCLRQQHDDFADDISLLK
Consider the reported IC50 of an entry and match it to a band in low band: < 0.007 µM; middle band: ≥ 0.007 µM and < 0.3 µM; high band: ≥ 0.3 µM

[
  {
    "compound": "CC#C/C(F)=C/c1ccc(F)c([C@@]2(C)N=C(N)S[C@@]3(C(=O)N(C)C)C[C@H]32)c1 [Example 209]",
    "system name": "BACE1 (Homo sapiens (Human))",
    "label class": "high band"
  },
  {
    "compound": "COC[C@]12C[C@H]1[C@@](CF)(c1cc(/C=C(\\F)c3ccc(Cl)cn3)ccc1F)N=C(N)S2 [Example 100]",
    "system name": "BACE1 (Homo sapiens (Human))",
    "label class": "middle band"
  },
  {
    "compound": "C[C@]1(c2cc(/C=C(\\F)c3ccc(C#N)cn3)ccc2F)N=C(N)S[C@@]2(C(=O)N3CCC3)C[C@H]21 [Example 123]",
    "system name": "BACE1 (Homo sapiens (Human))",
    "label class": "low band"
  },
  {
    "compound": "CN(C)C(=O)[C@]12C[C@H]1[C@@](C)(c1cc(/C=C(\\F)c3cnc(OCC#N)cn3)ccc1F)N=C(N)S2 [Example 158]",
    "system name": "BACE1 (Homo sapiens (Human))",
    "label class": "middle band"
  },
  {
    "compound": "C[C@]1(c2cc(/C=C(\\F)c3ccc(Cl)cn3)ccc2F)N=C(N)S[C@@]2(C(=O)N3CCCC3)C[C@H]21 [Example 103]",
    "system name": "BACE1 (Homo sapiens (Human))",
    "label class": "low band"
  },
  {
    "compound": "C[C@]1(c2cc(/C=C(\\F)c3ccc(C#N)cn3)ccc2F)N=C(N)S[C@@]2(C(=O)N3CC4(CCOCC4)C3)C[C@H]21 [Example 320]",
    "system name": "BACE1 (Homo sapiens (Human))",
    "label class": "low band"
  },
  {
    "compound": "CC#CCOc1cnc(/C(F)=C/c2ccc(F)c([C@@]3(C)N=C(N)S[C@@]4(C#N)C[C@H]43)c2)cn1 [Example 244]",
    "system name": "BACE1 (Homo sapiens (Human))",
    "label class": "middle band"
  },
  {
    "compound": "COC(=O)[C@]12C[C@H]1[C@@](C)(c1cc(/C=C(\\F)c3cnc(Cl)cn3)ccc1F)N=C(N)S2 [Example 149]",
    "system name": "BACE1 (Homo sapiens (Human))",
    "label class": "high band"
  },
  {
    "compound": "CCCC#Cc1ccc(/C(F)=C/c2ccc(F)c([C@@]3(C)N=C(N)S[C@@]4(C(=O)NC)C[C@H]43)c2)nc1 [Example 361]",
    "system name": "BACE1 (Homo sapiens (Human))",
    "label class": "high band"
  },
  {
    "compound": "COC[C@]12C[C@H]1[C@@](C)(c1cc(/C=C(\\F)c3ccc(Cl)cn3)ccc1F)N=C(N)S2 [Example 286]",
    "system name": "BACE1 (Homo sapiens (Human))",
    "label class": "high band"
  },
  {
    "compound": "CN(C)C(=O)[C@]12C[C@H]1[C@@](C)(c1cc(/C=C(\\F)c3ncc4c(n3)OCCO4)ccc1F)N=C(N)S2 [Example 250]",
    "system name": "BACE1 (Homo sapiens (Human))",
    "label class": "middle band"
  },
  {
    "compound": "C[C@]1(c2cc(/C=C(\\F)c3ccc(C#N)cn3)ccc2F)N=C(N)S[C@]2(CO)[C@H]1C2(F)F [Example 251]",
    "system name": "BACE1 (Homo sapiens (Human))",
    "label class": "middle band"
  },
  {
    "compound": "CC1COC([C@]23C[C@H]2[C@@](C)(c2cc(/C=C(\\F)c4ccc(C#N)cn4)ccc2F)N=C(N)S3)=N1 (some centres unmarked) [Example 342]",
    "system name": "BACE1 (Homo sapiens (Human))",
    "label class": "middle band"
  },
  {
    "compound": "C[C@]1(c2cc(/C=C(\\F)c3ccc(C#N)cn3)ccc2F)N=C(N)S[C@@]2(C(=O)N3CCO[C@@H]4C[C@@H]43)C[C@H]21 (single isomer, unassigned) [Example 312]",
    "system name": "BACE1 (Homo sapiens (Human))",
    "label class": "low band"
  }
]

* * *

system name: BACE2 (Homo sapiens (Human))
Sequence (Q9Y5Z0 63-518): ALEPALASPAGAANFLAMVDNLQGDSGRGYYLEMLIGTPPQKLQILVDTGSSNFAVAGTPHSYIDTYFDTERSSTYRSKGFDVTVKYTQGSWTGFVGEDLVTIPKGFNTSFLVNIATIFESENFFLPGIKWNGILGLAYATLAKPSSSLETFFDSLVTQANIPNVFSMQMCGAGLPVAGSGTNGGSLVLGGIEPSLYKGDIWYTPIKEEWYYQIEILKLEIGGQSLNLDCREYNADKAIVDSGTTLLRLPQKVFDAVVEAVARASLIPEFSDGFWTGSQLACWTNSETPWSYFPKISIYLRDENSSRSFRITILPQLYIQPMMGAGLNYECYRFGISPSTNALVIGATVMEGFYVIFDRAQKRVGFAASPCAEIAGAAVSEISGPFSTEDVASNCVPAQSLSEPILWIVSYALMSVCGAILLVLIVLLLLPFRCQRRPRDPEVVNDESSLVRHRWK
measurement protocol: In vitro enzymatic BACE2 FRET assay
Assay type: biochemical
test parameters: read-out: IC50 IP (μM) BACE2 Enzyme

[
  {
    "molecule": "C[C@]1(c2cc(/C=C(\\F)c3ccc(C#N)cn3)ccc2F)N=C(N)S[C@@]2(C(=O)N3CCC(F)(F)CC3)C[C@H]21 [Example 325]",
    "unit name": "µM",
    "IC50": 0.089
  },
  {
    "molecule": "CN(C)C(=O)[C@]12C[C@H]1[C@@](C)(c1cc(/C=C(\\F)c3cn4cc(C#N)ccc4n3)ccc1F)N=C(N)S2 [Example 246]",
    "unit name": "µM",
    "IC50": 0.39
  },
  {
    "molecule": "C[C@]1(c2cc(/C=C(\\F)c3ccc(Cl)cn3)ccc2F)N=C(N)S[C@@]2(CO)C[C@H]21 [Example 113]",
    "unit name": "µM",
    "IC50": 0.0339
  },
  {
    "molecule": "C#CCOc1cnc(/C(F)=C/c2ccc(F)c([C@@]3(C)N=C(N)S[C@@]4(C(=O)N5CC[C@@H](F)C5)C[C@H]43)c2)cn1 [Example 297]",
    "unit name": "µM",
    "IC50": 0.041
  },
  {
    "molecule": "COC[C@]12C[C@H]1[C@@](C)(c1cc(/C=C(\\F)c3cc4c(cn3)OCCO4)ccc1F)N=C(N)S2 [Example 305]",
    "unit name": "µM",
    "IC50": 0.373
  },
  {
    "molecule": "CN(C)C(=O)[C@]12C[C@H]1[C@@](C)(c1cc(/C=C(\\F)I)ccc1F)N=C(N)S2 [Example 206]",
    "unit name": "µM",
    "IC50": 0.008
  },
  {
    "molecule": "C#C[C@H](C)Oc1cnc(/C(F)=C/c2ccc(F)c([C@@]3(C)N=C(N)S[C@@]4(C(C)=O)C[C@H]43)c2)cn1 [Example 237]",
    "unit name": "µM",
    "IC50": 0.438
  }
]

* * *

system name: BACE1 (Homo sapiens (Human), UniProt P56817)
measurement protocol: In vitro enzymatic BACE1 FRET assay
Format: biochemical
test parameters: read-out: IC50 IP (μM) BACE1 Enzyme
Sequence (P56817 46-501): as the sequence (P56817 46-501, species assumed) above
Exam item: assign Criterion met to entries whose IC50 is below 0.01 µM and Criterion not met to entries at or above 0.01 µM. Note that a value of exactly 0.01 µM receives Criterion not met.

[
  {
    "molecule": "CC(=O)[C@]12C[C@H]1[C@@](C)(c1cc(/C=C(\\F)c3ccc(C#N)cn3)ccc1F)N=C(N)S2 [Example 238]",
    "label class": "Criterion not met"
  },
  {
    "molecule": "CC#CCOc1cnc(/C(F)=C/c2ccc(F)c([C@@]3(C)N=C(N)S[C@@]4(C(C)=O)C[C@H]43)c2)cn1 [Example 235]",
    "label class": "Criterion met"
  },
  {
    "molecule": "CN(C)C(=O)[C@]12C[C@H]1[C@@](C)(c1cc(/C=C(\\F)c3cnc(OCC4COC4)cn3)ccc1F)N=C(N)S2 [Example 212]",
    "label class": "Criterion not met"
  },
  {
    "molecule": "C[C@]1(c2cc(/C=C(\\F)c3ccc(C#N)cn3)ccc2F)N=C(N)S[C@@]2(C(=O)N3CCOCC34CCC4)C[C@H]21 [Example 331]",
    "label class": "Criterion met"
  },
  {
    "molecule": "C[C@@H]1COC[C@@H](C)N1C(=O)[C@]12C[C@H]1[C@@](C)(c1cc(/C=C(\\F)c3ccc(C#N)cn3)ccc1F)N=C(N)S2 [Example 314]",
    "label class": "Criterion met"
  },
  {
    "molecule": "CN(C)C(=O)[C@]12C[C@H]1[C@@](C)(c1cc(/C=C(\\F)c3cnc(OCC(F)(F)C(F)F)cn3)cnc1F)N=C(N)S2 [Example 291]",
    "label class": "Criterion not met"
  }
]
